Recorded PBM binding z-score values for a group of sequences are listed next.
# Test system: RXRa DBDmut IVT, anti-RXR (DBD mutation: RXRa K156A/R161A, NR concentration 90 nM)
# test-description: PBM binding z-score (relative to random genomic background probes); higher = stronger binding; sequences stand for … in GC…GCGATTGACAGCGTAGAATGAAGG
reported-endpoint: PBM binding z-score

ATATGTAGGTTAGCTGAGGTCATTCAGACTAGGC
1.9
TCTAGTGGGTCAAAGGTCACACACTCGAAATGCG
2.07
TTGCCAAGGTGAAAGGTCGTTGATGCACGCCTTG
0.468
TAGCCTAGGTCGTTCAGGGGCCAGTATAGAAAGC
0.406
CCGAGTTGGTCAAGGTCACACACGCTATAGGTAC
3.18
TGTCAAAGTTCAAAGGTCACGTAAGTATCCACAC
4.57
CCTACTGGGCCTAAGGTCATTGATTCCAATGCTC
1.17
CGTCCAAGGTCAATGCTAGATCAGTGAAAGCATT
3.56
CTATGTAGGTCAAGGGGGTCATTCAGTTTGAAAG
3.29
TATACAAGGTCAAAGGCCAGAGTACGAATGTCGA
2.92
CAAACGAGGTCACAGAGGTCAAAGTCCGTGCGTA
4.98
AATACGGGGTCACTAGGCCAGAGTAGGTACGAAT
4.12
CGAACTAGGTCATCCAGGTCAGTGAATACATTGA
2.52
ACGCGGAGGACAAAGGTCAGAGCTACGCCAGTGA
0.687
CGAACTAGGTCACCCAGGACAGTGAATACATTGA
2.03
CGAACAAGGTCATCCAGGACAGTGAATACATTGA
4.2
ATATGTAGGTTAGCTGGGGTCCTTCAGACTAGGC
0.183
CCTCGGAGGTCAACAGGAGGTCAGAGCTGCCAGA
3.36
ATTTGTAGGTTACATCCGGGTCATTCAGGCTATG
1.3
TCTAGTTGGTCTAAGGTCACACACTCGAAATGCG
2.21
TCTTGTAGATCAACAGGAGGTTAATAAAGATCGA
0.161
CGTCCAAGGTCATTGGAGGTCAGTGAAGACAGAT
4.46
TGTATGAGGTTAAAGATCAGGGAACGTGGCGTCG
1.22
ACTTACGGGTCTACGAGGTTATAGCACGCGTATA
0.937
CGAACTAGGTCAAGGACAGTAAATCTCCGCACGC
1.47
CGTCAAAGGTCAGAGAGGTCAGTGAATGCCGAGT
3.48
